Assay: Oral pharmacokinetics of CSE constituents in rat plasma (UFLC-MS/MS)
Type: in vivo, Sprague–Dawley rats
Conditions: male, Sprague-Dawley, single oral CSE 40 mg/kg, n = 6, mean ± SEM
Property Name: Cmax (ng/mL)

[I] CC(/C=C/C=C(\C)C(=O)O)=C\C=C\C=C(C)\C=C\C=C(/C)C(=O)O [TCT, trans crocetin]
[II] CC(/C=C/C=C(\C)C(=O)OC1OC(CO)C(O)C(O)C1O)=C\C=C\C=C(C)\C=C\C=C(/C)C(=O)OC1OC(CO)C(O)C(O)C1O (stereo not drawn) [T2C, trans-2-gg-crocin]
[III] CC(/C=C/C=C(\C)C(=O)OC1OC(CO)C(O)C(O)C1O)=C\C=C\C=C(C)\C=C\C=C(/C)C(=O)OC1OC(COC2OC(CO)C(O)C(O)C2O)C(O)C(O)C1O (stereo not drawn) [T3C, trans-3-Gg-crocin]
QUERY: hey, can you rank those compounds up there by Cmax? biggest number first please Please reply with the labels ordered as requested. Many thanks.
RESULT: I, II, III
(I: 2080 ng/mL, II: 160 ng/mL, III: 7.59 ng/mL)

----------
Experiment: Oral pharmacokinetics of CSE constituents in rat plasma (UFLC-MS/MS)
Assay type: in vivo, Sprague–Dawley rats
Details: single oral CSE 40 mg/kg, n = 6, mean ± SEM
Property Name: CL (mL/h/kg)

Compound | Property Name | Observed
CC(/C=C/C=C(\C)C(=O)OC1OC(CO)C(O)C(O)C1O)=C\C=C\C=C(C)\C=C\C=C(/C)C(=O)OC1OC(CO)C(O)C(O)C1O (stereo not drawn) [T2C, trans-2-gg-crocin] | CL | 234.77

[I] CC(=C/C=C/C=C(C)/C=C/C=C(\C)C(=O)OC1OC(COC2OC(CO)C(O)C(O)C2O)C(O)C(O)C1O)/C=C/C=C(\C)C(=O)OC1OC(COC2OC(CO)C(O)C(O)C2O)C(O)C(O)C1O (stereo not drawn) [C4C, cis-4-GG-crocin]
[II] CC1=C(C=O)C(C)(C)C[C@H](O[C@@H]2O[C@H](CO)[C@@H](O)[C@H](O)[C@H]2O)C1
QUERY: Param pair: I , II . Output: the one whose CL is numerically greater. Answer by stating the label of the chosen item.
RESULT: II

----------
Test: Oral pharmacokinetics of CSE constituents in rat plasma (UFLC-MS/MS)
Format: in vivo, Sprague–Dawley rats
Settings: male, Sprague-Dawley, rat, plasma, po, 40 mg/kg, single oral CSE 40 mg/kg, n = 6, mean ± SEM, read-out: Tmax
Property Name: Tmax (h)

Molecule | Property Name | Observed
CC(/C=C/C=C(\C)C(=O)OC1OC(COC2OC(CO)C(O)C(O)C2O)C(O)C(O)C1O)=C\C=C\C=C(C)\C=C\C=C(/C)C(=O)OC1OC(COC2OC(CO)C(O)C(O)C2O)C(O)C(O)C1O (stereo not drawn) [T4C, trans-4-GG-crocin] | Tmax | 3.5

[a] CC1=C(C=O)C(C)(C)C[C@H](O[C@@H]2O[C@H](CO)[C@@H](O)[C@H](O)[C@H]2O)C1
[b] CC(/C=C/C=C(\C)C(=O)OC1OC(CO)C(O)C(O)C1O)=C\C=C\C=C(C)\C=C\C=C(/C)C(=O)OC1OC(CO)C(O)C(O)C1O (stereo not drawn) [T2C, trans-2-gg-crocin]
QUERY: Param pair: a , b . Output: the one whose Tmax is numerically greater. Answer by stating the label of the chosen item.
RESULT: b
